Tested on: U2OS
Assay: fractional viability (live cells / total cells); higher = less cell death
Settings: 0.01 µM; 72 h
Give fractional viability for every item shown.
A bare number is all that is needed in reply.

Q: Query (molecule): `C=CCNc1ncnc2ccc(Br)cc12` ; field requested: fractional viability
A: 0.977

Q: Query (molecule): `CC(C)C[C@@H](C=O)NC(=O)[C@H](CC(C)C)NC(=O)[C@H](CC(C)C)NC(=O)OCc1ccccc1` ; field requested: fractional viability
A: 0.973

Q: Query (molecule): `Cc1cc(Nc2ccc(NC(=O)c3ccc(Nc4ccnc5ccccc45)cc3)cc2)nc(N)n1` ; field requested: fractional viability
A: 0.975

Q: Query (molecule): `CC1(C)CCC(c2ccc(Cl)cc2)=C(CN2CCN(c3ccc(C(=O)NS(=O)(=O)c4ccc(N[C@H](CCN5CCOCC5)CSc5ccccc5)c(S(=O)(=O)C(F)(F)F)c4)cc3)CC2)C1` ; field requested: fractional viability
A: 0.98

Q: Query (molecule): `COc1cc2nccc(Oc3ccc(NC(=O)Nc4cc(C)on4)c(Cl)c3)c2cc1OC` ; field requested: fractional viability
A: 0.977

Q: Query (molecule): `Cc1ccc(C(=O)N(CCCN)[C@@H](c2oc3cc(Cl)ccc3c(=O)c2Cc2ccccc2)C(C)C)cc1` ; field requested: fractional viability
A: 0.758

Q: Query (molecule): `COC(=O)Nc1nc2cc(C(=O)c3ccc(F)cc3)ccc2[nH]1` ; field requested: fractional viability
A: 0.981

Q: Query (molecule): `COCC[n+]1c2c(n(Cc3cnccn3)c1C)C(=O)c1ccccc1C2=O` ; field requested: fractional viability
A: 0.852
